Experiment: Apparent permeability of compound in human Caco-2 cells
Type: ADME, cell-based
Rule: measured Papp below 40 ×10⁻⁶ cm/s gets rule met; anything equal to or greater than 40 ×10⁻⁶ cm/s gets rule not met.

Would you please look over these solved cases?
compound	label
OC1(C(F)(F)F)c2ccccc2-c2ccc(-c3ccccc3)cc21 (racemic)	rule met
Cn1cc(-c2cc(OCCCC(=O)O)cc3c2-c2ccccc2C3(O)C(F)(F)F)cn1 (centres undefined)	rule met
O=C(c1ccc2c(c1)C(O)(C(F)(F)F)c1ccccc1-2)N1CCC1 (racemic)	rule not met
OC1(C(F)(F)F)c2ccccc2-c2ccccc21	rule not met
OCCCCOc1ccc2c(c1)C(O)(C(F)(F)F)c1ccccc1-2 (racemic)	rule not met
OC1(C(F)(F)F)c2ccccc2-c2c(-c3cccnc3)cccc21 (racemic)	rule met

Find out if reported Papp for CC(C)(C)Cn1cc(-c2cccc3c2-c2ccccc2C3(O)C(F)(F)F)cn1 (racemic) is less than 40 ×10⁻⁶ cm/s
rule met

Find out if reported Papp for COC(=O)c1ccc2c(c1)C(O)(C(F)(F)F)c1ccccc1-2 (racemic) is less than 40 ×10⁻⁶ cm/s
rule met

Find out if reported Papp for Cn1cc(-c2cccc3c2-c2ccccc2C3(O)C(F)(F)F)cn1 (racemic) is less than 40 ×10⁻⁶ cm/s
rule not met

Find out if reported Papp for Cc1cc(-c2cnn(CCO)c2)c2c(c1)C(O)(C(F)(F)F)c1ccccc1-2 (centres undefined) is less than 40 ×10⁻⁶ cm/s
rule not met

Find out if reported Papp for CNC(=O)Cn1cc(-c2cccc3c2-c2ccccc2C3(O)C(F)(F)F)cn1 (racemic) is less than 40 ×10⁻⁶ cm/s
rule not met

Find out if reported Papp for OC1(C(F)(F)F)c2ccccc2-c2c(-c3cncnc3)cccc21 (racemic) is less than 40 ×10⁻⁶ cm/s
rule not met

Find out if reported Papp for O=C(O)CCCOc1ccc2c(c1)C(O)(C(F)(F)F)c1ccccc1-2 (racemic) is less than 40 ×10⁻⁶ cm/s
rule not met

Find out if reported Papp for COC(=O)c1cccc2c1-c1ccccc1C2(O)C(F)(F)F (racemic) is less than 40 ×10⁻⁶ cm/s
rule met

Find out if reported Papp for O=C(c1cc(-c2cnn(CCO)c2)c2c(c1)C(O)(C(F)(F)F)c1ccccc1-2)N1CCC1 (racemic) is less than 40 ×10⁻⁶ cm/s
rule met

Find out if reported Papp for OCCn1cc(-c2cc(F)cc3c2-c2ccccc2C3(O)C(F)(F)F)cn1 (centres undefined) is less than 40 ×10⁻⁶ cm/s
rule not met

Find out if reported Papp for OCCn1cc(-c2cccc3c2-c2ccccc2C3(O)C(F)(F)F)cn1 (racemic) is less than 40 ×10⁻⁶ cm/s
rule not met

Find out if reported Papp for OC1(C(F)(F)F)c2ccccc2-c2c(-c3cnco3)cccc21 (racemic) is less than 40 ×10⁻⁶ cm/s
rule not met

---

Assay: Total body clearance in Sprague-Dawley rat at 1 mg/kg, iv measured for 25 hrs by LC-MS/MS analysis
Type: ADME, organism-based
Conditions: in vivo
outcome.measure: clearance (mL/min/kg)
Express your answer in mL/min/kg, writing the number without its unit.

Give the value of clearance reported for the following: Cc1cc(-c2cnn(CCO)c2)c2c(c1)C(O)(C(F)(F)F)c1ccccc1-2 (stereo unspecified)
11.7

---

Test: Cmax in Sprague-Dawley rat at 10 mg/kg, po measured for 25 hrs by LC-MS/MS analysis
Type: ADME, organism-based
Conditions: in vivo
outcome.measure: Cmax (µM)
Express your answer in µM, writing the number without its unit.

Give the value of Cmax reported for the following: Cc1cc(-c2cnn(CCO)c2)c2c(c1)C(O)(C(F)(F)F)c1ccccc1-2 (stereo unspecified)
4.4
